Field: Chemical stability at pH ca. 1.2: degradation after 2 h at 37° C.. Provide a value for each of the compounds that follow.
# ASSAY INFO: Chemical stability (degradation kinetics) in acidic aqueous media, HPLC recovery
# Format: physicochemical
# PARTICULARS: pH ca. 1.2, 2 h, 37° C.
Answers are plain numbers, in %.

COMPOUND: Cc1cc(OCCCS(C)(=O)=O)cc(C)c1-c1ccc(F)c2c1CC[C@H]2Oc1ccc([C@H]2C[C@@H]2C(=O)O)cc1 [Example 11 in WO 2013/178575, reference compound]
UNITS SYMBOL: %
MEASURED RESULT: 5

Consider the record given below.
Task: For Cc1cc(OCCC(C)(C)O)cc(C)c1-c1ccc(F)c2c1CC[C@H]2Oc1ccc([C@H]2C[C@@H]2C(=O)O)cc1 [Example 17 in WO 2013/178575, reference compound] , what is its reported Chemical stability at pH ca. 1.2: degradation after 2 h at 37° C.?
Result: 8

====

# ASSAY INFO: Chemical stability (degradation kinetics) in acidic aqueous media, HPLC recovery
# Type: physicochemical
# PARTICULARS: pH ca. 1.2, 37° C., acetonitrile/0.1 M aqueous HCl (2:3)
MEASUREMENT LABEL: Amount of degradation after 2 h

Reference set, count: 2
MOLECULE: Cc1cc(OCCC(C)(C)O)cc(C)c1-c1ccc(F)c2c1CC[C@H]2Oc1ccc([C@H]2C[C@@H]2C(=O)O)cc1 [Example 17 in WO 2013/178575, reference compound]
Amount of degradation after 2 h: 8%
//
MOLECULE: Cc1cc(OCCC(C)(C)O)cc(C)c1-c1cccc2c1CC[C@H]2Nc1cnc([C@H]2C[C@@H]2C(=O)O)cn1 [Example 7]
Amount of degradation after 2 h: <1%

Consider the record given below.
Task: For Cc1cc(OCCC(C)(C)O)cc(C)c1-c1ccc(F)c2c1CC[C@H]2Nc1cnc([C@H]2C[C@@H]2C(=O)O)cn1 [Example 2] , what is its reported Amount of degradation after 2 h?
Result: <0.5%

====

# ASSAY INFO: Chemical stability (degradation kinetics) in acidic aqueous media, HPLC recovery
# Format: physicochemical
# PARTICULARS: pH ca. 1.2, 37° C., acetonitrile/0.1 M aqueous HCl (2:3)
MEASUREMENT LABEL: Amount of degradation after 2 h (%)
Numbers only, in %.

Reference set, count: 2
COMPOUND: Cc1cc(C(=O)NCC(C)(C)O)cc(C)c1-c1ccc(F)c2c1CC[C@H]2Oc1ccc([C@H]2C[C@@H]2C(=O)O)cc1 [Example 15 in WO 2013/178575, reference compound]
MEASUREMENT LABEL: Amount of degradation after 2 h
MEASURED RESULT: 3

COMPOUND: Cc1cccc(C)c1-c1ccc(F)c2c1CC[C@H]2Oc1ccc(C2CC2C(=O)O)cc1 (stereo partly drawn) [Example 33 in WO 2013/178575, reference compound]
MEASUREMENT LABEL: Amount of degradation after 2 h
MEASURED RESULT: 8

Consider the record given below.
Task: For Cc1cc(OCCCS(C)(=O)=O)cc(C)c1-c1ccc(F)c2c1CC[C@H]2Oc1ccc([C@H]2C[C@@H]2C(=O)O)cc1 [Example 11 in WO 2013/178575, reference compound] , what is its reported Amount of degradation after 2 h?
Result: 5
